Target: Guanine nucleotide-binding protein G(o) subunit alpha (Homo sapiens)
Assay: modulators of RGS4 binding to Galphao, primary screen, biochemical, multiplexed bead flow cytometry (AID 1415);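 note: fluorescent Galphao activated with aluminum fluoride binding bead-coupled RGS4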
Settings: at 10 µM, actives lie on both sides
Hit rate of the full screen: of about 220,000 compounds, about 710 (0.32%) were called active. Cut-off read from the data, not from the text of the source: active = binding response below about 49% or above about 150%; inactive = in between. Shown is part of a subset that was picked to be rich in actives.
Hi! Could you answer with just one of these? class 1 (active), class 0 (inactive)

Here are 5 molecules together with their reported answers.
MOLECULE	CLASS_LABEL
Cn1c(=O)c2c(n(Cc3ccccc3)c1=O)NC(=O)C2CC(=O)N1CCc2ccccc2C1 (stereo unspecified)	class 1
O=C(CC1SCCNC1=O)Nc1ccc(Cl)cc1 (stereo unspecified)	class 0
CCOC(=O)C1Cn2c(nc3c(c2=O)C(C)(CC)Cc2ccccc2-3)S1 (stereo unspecified)	class 0
O=C(CN(C(=O)c1csnn1)c1cccc(F)c1)NCc1ccc(F)cc1	class 0
CCN(CC)CCn1cnc2c1c(=O)n(CCOC(=O)c1cc(OC)c(OC)c(OC)c1)c(=O)n2C	class 1

Prompt: I'd appreciate the recorded outcome for O=C(COc1ccc(/C=N/NC(=O)c2ccc(O)cc2)cc1)Nc1ccc([N+](=O)[O-])cc1 from this test.
Completion: class 0

Prompt: I'd appreciate the recorded outcome for CCN(CC)CCN1C(=O)C(=O)/C(=C(/O)c2ccc(OC)c(OC)c2)C1c1ccccn1 (stereo unspecified) from this test.
Completion: class 0

Prompt: I'd appreciate the recorded outcome for COc1ccccc1CCNC(=O)c1cnccn1 from this test.
Completion: class 0

Prompt: I'd appreciate the recorded outcome for CC1CCN(C(=S)NC2CC3CCC2C3)CC1 (stereo unspecified) from this test.
Completion: class 0

Prompt: I'd appreciate the recorded outcome for O=C(OCC1O[C@@H](OC(=O)c2cc(O)c(O)c(O)c2)[C@@H](OC(=O)c2cc(O)c(O)c(O)c2)[C@@H](OC(=O)c2cc(O)c(O)c(O)c2)[C@@H]1OC(=O)c1cc(O)c(O)c(O)c1)c1cc(O)c(O)c(O)c1 (stereo partly specified) from this test.
Completion: class 1

Prompt: I'd appreciate the recorded outcome for Cc1ccsc1/C=N/Nc1ccc(Cl)nn1 from this test.
Completion: class 0

---

Biological target: Guanine nucleotide-binding protein G(o) subunit alpha (Homo sapiens) (UniProt P09471)
Sequence (P09471 whole entry, looked up): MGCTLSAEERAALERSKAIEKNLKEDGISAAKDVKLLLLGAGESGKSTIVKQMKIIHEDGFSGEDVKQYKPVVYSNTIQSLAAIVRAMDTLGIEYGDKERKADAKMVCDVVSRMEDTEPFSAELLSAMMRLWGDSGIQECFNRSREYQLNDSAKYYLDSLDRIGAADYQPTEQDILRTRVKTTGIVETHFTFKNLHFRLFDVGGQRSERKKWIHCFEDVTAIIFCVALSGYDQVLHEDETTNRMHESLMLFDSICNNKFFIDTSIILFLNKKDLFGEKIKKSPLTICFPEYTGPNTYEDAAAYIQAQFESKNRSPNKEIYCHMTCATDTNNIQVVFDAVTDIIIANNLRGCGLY
Test: modulators of RGS4 binding to Galphao, primary screen, biochemical, multiplexed bead flow cytometry (AID 1415);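 note: fluorescent Galphao activated with aluminum fluoride binding bead-coupled RGS4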
Conditions: at 10 µM, actives lie on both sides
Among all 220,000 compounds or so, about 710 (0.32%) were called active. Only a selection was taken, and actives are over-represented in it overall.
READOUT_LABEL: binding response (% of control) (%)
Numbers only, in %.

// worked examples, binding response (% of control) included
>>> df
                                   molecule                    readout_label  scale_unit  measured_value
0  COc1ccc(/C(O)=C2\C(=O)C(=O)N(Cc3ccco3)C2c2ccc(OC)cc2OC)cc1 (stereo not given)  binding response (% of control)           %            99.5
1  CC(C(=O)O)n1cnc2sc3c(c2c1=O)CCCC3 (stereo not given)  binding response (% of control)           %            94.7
2  COC(=O)c1c(C(=O)OC)c(-c2cccc(C)c2)n2c1CS(=O)C2 (stereo not given)  binding response (% of control)           %            91.5
3  O=C(Nc1ccc(F)cc1)C1CCN(C(=O)c2ccc([N+](=O)[O-])cc2)CC1  binding response (% of control)           %            99.8
4  O=C(NCc1ccc2c(c1)OCO2)C12CC3CC(CC(C3)C1)C2  binding response (% of control)           %            98.9

Could I get binding response (% of control) for every one of these entries?
1. Cc1ccc(NC(=O)Nc2cccc(C(F)(F)F)c2)nc1
2. COCC(C)n1c(C)cc(C(=O)COc2ccc(C)nc2[N+](=O)[O-])c1C (stereo not given)
3. CCC(=O)NC(Nc1cc(C)ccn1)(C(F)(F)F)C(F)(F)F
4. COc1cc(C2/C(=C(\O)c3ccc4c(c3)CC(C)O4)C(=O)C(=O)N2Cc2ccco2)ccc1O (stereo not given)
5. OCCC1CN(Cc2ccc(Oc3ncccn3)cc2)CCN1CCc1ccccc1 (stereo not given)

Completion:
1. 99.7
2. 99.8
3. 104
4. 18.3
5. 98.9

---

Molecular target: Guanine nucleotide-binding protein G(o) subunit alpha (Homo sapiens)
Assay: modulators of RGS4 binding to Galphao, primary screen, biochemical, multiplexed bead flow cytometry (AID 1415);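 note: fluorescent Galphao activated with aluminum fluoride binding bead-coupled RGS4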
Details: at 10 µM, actives lie on both sides
Screen size: about 220,000 compounds; about 710 (0.32%) were called active. Cut-off read from the data, not from the text of the source: active = binding response below about 49% or above about 150%; inactive = in between. The list comes from a sample in which actives are over-represented; it also holds close analogues and randomly drawn compounds.
Hi! Could you answer with just one of these? true = active, false = inactive

Prompt: I'd appreciate the recorded outcome for Cc1ccc(-c2c[n+](=O)c3c(n2[O-])CCC3)cc1 from this test.
Completion: false

Prompt: I'd appreciate the recorded outcome for CCn1c(=N)n(CC(=O)c2cccc(OC)c2)c2ccccc21 from this test.
Completion: false

Prompt: I'd appreciate the recorded outcome for CC(=O)c1cc(-c2ccccc2)n(CC(=O)NC2CCCCC2)c1C from this test.
Completion: false

---

Field: binding response (% of control). Provide a value for each of the compounds that follow.
Molecular target: Guanine nucleotide-binding protein G(o) subunit alpha (Homo sapiens) (UniProt P09471)
Experiment: modulators of RGS4 binding to Galphao, primary screen, biochemical, multiplexed bead flow cytometry (AID 1415);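 note: fluorescent Galphao activated with aluminum fluoride binding bead-coupled RGS4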
Details: at 10 µM, actives lie on both sides
Screen size: about 220,000 compounds; about 710 (0.32%) were called active. For the sample, actives were picked, then their nearest neighbours and some compounds at random.
Give bare numbers, in %.

// worked examples, binding response (% of control) included
In [3]: df
Out[3]:
                                   compound  scale_unit  measured_value
0  CCOc1ccccc1NC(=O)CCN1CCN(S(=O)(=O)c2ccc(OC)cc2)CC1           %              97
1  COC(=O)c1ccc(CN2CCN(CCCc3ccccc3)C(CCO)C2)cc1 (stereo unspecified)           %            91.5
2               Cc1ccc(C(=O)Cc2nnc(C)s2)cc1           %             100
3  Cc1c(C(=O)Nc2ccccc2Cl)oc2ccc(S(=O)(=O)N3CCC4(CC3)OCCO4)cc12           %             106
4  OCCC1CN(Cc2cccc(OC3CCCC3)c2)CCN1Cc1ccsc1 (stereo unspecified)           %             100
5  CC(CC(=O)C1C(C)C=CCC1(C)C)NNC(N)=O (stereo unspecified)           %             101

Could I get binding response (% of control) for every one of these entries?
1. CC(=O)c1ccc(S(=O)(=O)N2CCN(C(=O)/C=C/c3ccc4ccccc4n3)CC2)cc1
2. Cc1ccc(OCC(=O)Nc2nnc(-c3ccco3)s2)cc1
3. Fc1ccccc1/C=N/n1c(-c2cccnc2)n[nH]c1=S
4. O=C(c1ccc(Br)o1)N(c1ccccn1)C1CCCCC1

Completion:
1. 84
2. 102
3. 102
4. 92.3

Prompt: Value lookup for binding response (% of control); key = CCOc1ccccc1NC(=O)c1cc(S(=O)(=O)N2CCC3(CC2)OCCO3)ccc1F
Completion: -0.18

---

Molecular target: Guanine nucleotide-binding protein G(o) subunit alpha (Homo sapiens) (UniProt P09471)
Assay: modulators of RGS4 binding to Galphao, primary screen, biochemical, multiplexed bead flow cytometry (AID 1415);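 note: fluorescent Galphao activated with aluminum fluoride binding bead-coupled RGS4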
Details: at 10 µM, actives lie on both sides
Among all 220,000 compounds or so, about 710 (0.32%) were called active. Rule as the data show it: active = binding response below about 49% or above about 150%; inactive = in between. The full list was thinned out, with actives kept by preference.
Hi! Could you answer with just one of these? active, inactive

Here are 3 molecules together with their reported answers.
>>> df
                  compound_structure_string  class_label
0         COc1cccc(C(=O)NCCSc2ccc(Br)cc2)c1       active
1  O=C(Cc1c[nH]c2ccccc12)OCCOC(=O)Cc1c[nH]c2ccccc12     inactive
2              N#Cc1ccc(CSc2nnc3ccccn23)cc1     inactive

In the following, a different molecule is considered.
Prompt: I'd appreciate the recorded outcome for COc1cccc(C(=O)NNC(=O)c2ccccc2Br)c1 from this test.
Completion: inactive

---

Target: Guanine nucleotide-binding protein G(o) subunit alpha (Homo sapiens) (UniProt P09471)
Experiment: modulators of RGS4 binding to Galphao, primary screen, biochemical, multiplexed bead flow cytometry (AID 1415);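 note: fluorescent Galphao activated with aluminum fluoride binding bead-coupled RGS4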
Conditions: at 10 µM, actives lie on both sides
Out of some 220,000 compounds screened, about 710 (0.32%) were called active. Cut-off read from the data, not from the text of the source: active = binding response below about 49% or above about 150%; inactive = in between. The sample as a whole holds a higher share of actives than the screen did.
Hi! Could you answer with just one of these? active, inactive

Here are 3 compounds together with their reported answers.
>>> df
                                   compound  class_label
0    O=C(NNC1=C(C(=O)C(F)(F)F)CCC1)c1ccncc1     inactive
1  Cc1ccc(N2C(=O)C3CC3C2=O)cc1 (configuration not stated)     inactive
2  Clc1ccc(C2CC(c3cccs3)n3ncnc3N2)cc1Cl (configuration not stated)     inactive

Prompt: I'd appreciate the recorded outcome for Cc1cc(C)n(CC(O)CN(c2ccccc2)S(=O)(=O)c2ccc3ccccc3c2)n1 (configuration not stated) from this test.
Completion: active

Prompt: I'd appreciate the recorded outcome for COc1c(O)cc2oc(-c3ccc(O)c(O)c3)cc(=O)c2c1O from this test.
Completion: inactive

Prompt: I'd appreciate the recorded outcome for Cc1ccc(NC(=O)c2oc(=O)c3ccccc3c2-c2ccccc2)c(C)c1 from this test.
Completion: inactive

Prompt: I'd appreciate the recorded outcome for COC(=O)CCCC1=CC2=CC(=O)C(C)(OC(=O)c3cccs3)C(=O)C2=CN1c1cccc(C#N)c1 (configuration not stated) from this test.
Completion: inactive
